experiment: chemical genetic growth profiling, strain panel (AID 1159580);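 note: tested at 20 µM; growth read once vehicle control cultures reached saturation at 30 °C; 1 = growth at the plate median or of vehicle wells; lower values mean less growth of the strain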; conditions: S. cerevisiae deletion strains, growth OD, strain wtn01, hits give low values
Hit rate of the full screen: of about 5,500 compounds, about 2,000 (36%) were called active. Another 18% or so got no clear call; they are omitted. Some of the results follow.
Items are presented alongside their recorded normalized growth.
observed_property: normalized growth

{"columns": ["compound", "measured_result"],
 "data": [
  ["COc1cc2c(cc1OC)C1C(=O)c3c(cc4c(c3O)C=CC(C)(C)O4)OC1CO2 (stereo not given)", 0.989],
  ["COc1cc2c(cc1OC)[C@@H]1C(=O)c3ccc(O)c(CC=C(C)C)c3O[C@@H]1CO2", 1.04],
  ["COc1cc2c(cc1OC)[C@@H]1C(=O)c3ccc4oc(C(C)C)cc4c3O[C@@H]1CO2", 1.04],
  ["NCCSSCCN", 1.03],
  ["COc1cc2c(cc1OC)[C@@H]1C(=O)c3ccc(OC)c(CC=C(C)C)c3O[C@@H]1CO2", 1.01],
  ["CC(=O)NC1SCCC1=O (stereo not given)", 1.01],
  ["CC(=O)[C@H]1CCC2C3CCC4=CC(=O)CC[C@]4(C)C3CC[C@@]21C (stereo not given in full)", 0.789],
  ["COc1ccc2c(c1)O[C@@H]1COc3cc(OC)c(OC)cc3[C@@H]1C2=O", 0.686],
  ["CC[C@H](/C=C/C(C)C1CCC2C3CCC4=CC(=O)CC[C@]4(C)C3CC[C@]12C)C(C)C (stereo not given in full)", 0.992],
  ["C[C@]12CCC(=O)C=C1CCC1C2CC[C@@]2(C)C1CC[C@@H]2O (stereo not given in full)", 0.989]
]}

###

test: chemical genetic growth profiling, strain panel (AID 1159580);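 note: tested at 20 µM; growth read once vehicle control cultures reached saturation at 30 °C; 1 = growth at the plate median or of vehicle wells; lower values mean less growth of the strain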; details: S. cerevisiae deletion strains, growth OD, locus YDR334W, strain swr1
Out of some 5,500 compounds screened, about 2,000 (36%) were called active. Roughly 18% stayed inconclusive and do not appear here. No stated cut-off is given here; in the data, active means normalized growth mostly below about 0.91 (no sharp cut-off); inconclusive means no clear call, values can overlap the other calls; inactive means mostly above about 0.92. The list shows a part of the results.
Possible outcomes: active, inactive

{"columns": ["molecule", "discrete_label"],
 "data": [
  ["C=C1C2CC[C@H]3[C@]4(C)C[C@H](OC5OC(CO)C(OS(=O)(=O)O)C(OS(=O)(=O)O)C5OC(=O)CC(C)C)C[C@@H](C(=O)O)[C@H]4CC[C@]3(C2)[C@H]1O (stereo partly specified)", "inactive"],
  ["COc1ccc2c(c1)OCc1c-2oc2cc(OC)ccc12", "inactive"],
  ["Cc1cc(O)c(C=O)c(O)c1C(=O)O", "inactive"],
  ["O=C(O)c1cc2ccccc2[nH]1", "inactive"],
  ["CC1=C(C/C=C(\\C)CCC[C@H](C)CCC[C@H](C)CCCC(C)C)C(=O)c2ccccc2C1=O", "inactive"],
  ["CC(C(=O)O)c1ccc(-c2ccccc2)c(F)c1 (stereo unspecified)", "inactive"],
  ["CN1CCC(=C2c3ccccc3CC(=O)c3sccc32)CC1", "inactive"],
  ["CCCCCCCCCCCCCCCC(=O)OC/C=C(C)/C=C/C=C(C)/C=C/C1=C(C)CCCC1(C)C", "inactive"],
  ["COC1=C(OC)C(=O)C(C/C=C(\\C)CC/C=C(\\C)CC/C=C(\\C)CC/C=C(/C)CC/C=C(\\C)CC/C=C(\\C)CC/C=C(\\C)CC/C=C(\\C)CC/C=C(\\C)CCC=C(C)C)=C(C)C1=O", "inactive"],
  ["CC(Oc1ccccc1)C(=O)N[C@@H]1C(=O)N2[C@@H]1SC(C)(C)[C@@H]2C(=O)O (stereo partly specified)", "inactive"],
  ["COc1ccc2c(C)cc(=O)oc2c1", "inactive"],
  ["CCOC(=O)c1c(C)cc(O)c(C=O)c1O", "active"],
  ["Cc1cc(O)c(C)c(O)c1C(=O)O", "inactive"],
  ["CC(N)CCCC(C)(C)O (stereo unspecified)", "inactive"],
  ["CC(=O)NC1SCCC1=O (stereo unspecified)", "inactive"],
  ["CC(C)(O)[C@@H]1[C@H]2OC(=O)[C@@H]1[C@]1(O)C[C@H]3O[C@]34C(=O)O[C@H]2[C@]14C", "inactive"],
  ["CC1=C(/C=C/C(C)=C/C=C/C(C)=C/C=C/C=C(C)/C=C/C=C(C)/C=C/C2=C(C)C(=O)CCC2(C)C)C(C)(C)CCC1=O", "inactive"],
  ["S=c1nc[nH]c2nc[nH]c12", "inactive"],
  ["COc1ccc2cc([C@H](C)C(=O)O)ccc2c1", "inactive"],
  ["CCN(CCO)CCCC(C)Nc1ccnc2cc(Cl)ccc12 (stereo unspecified)", "inactive"],
  ["CCOC(=O)[C@H](CCc1ccccc1)N[C@H]1CCc2ccccc2N(CC(=O)O)C1=O", "inactive"],
  ["CN1CCCN=C1COC(=O)C(O)(c1ccccc1)C1CCCCC1 (stereo unspecified)", "inactive"],
  ["CN1CCC(=C2c3ccccc3CCc3sccc32)CC1", "inactive"],
  ["O=C(O)c1c2ccccc2cc2ccccc12", "inactive"],
  ["CC1=C(/C=C/C(C)=C/C=C/C(C)=C/C=C/C=C(C)/C=C/C=C(C)/C=C/C2=C(C)C(=O)C(O)CC2(C)C)C(C)(C)CC(O)C1=O (stereo unspecified)", "inactive"],
  ["CCN(CC)CCCC(C)Nc1c2ccc(Cl)cc2nc2ccc(OC)cc12 (stereo unspecified)", "inactive"]
]}

FYI, the data here is from PubChem BioAssay AID1159580.
